# subject-of-test: ZmHsf17 (Zea mays, UniProt A0A5J6CYG6 1-373)
# Sequence (A0A5J6CYG6 entry or part of it): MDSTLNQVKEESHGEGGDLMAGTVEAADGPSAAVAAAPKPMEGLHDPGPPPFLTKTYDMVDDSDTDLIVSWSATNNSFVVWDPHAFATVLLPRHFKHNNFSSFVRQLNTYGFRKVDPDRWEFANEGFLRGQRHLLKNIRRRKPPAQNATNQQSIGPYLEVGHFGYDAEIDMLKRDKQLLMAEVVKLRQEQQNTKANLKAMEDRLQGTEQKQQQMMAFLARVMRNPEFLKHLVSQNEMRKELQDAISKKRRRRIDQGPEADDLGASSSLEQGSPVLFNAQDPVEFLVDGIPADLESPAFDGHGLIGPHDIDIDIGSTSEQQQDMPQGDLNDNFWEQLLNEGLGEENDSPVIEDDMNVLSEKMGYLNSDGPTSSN
# measurement-protocol: EMSA; EMSA/Gel-Shift buffer (Beyotime GS009; composition, salt and pH not stated), 10 uL, 25 C 30 min; 6% native PAGE in 0.5x TBE at 4 C
# reported-conditions: protein: recombinant; tags: 6xHis (stated C-terminal; pET-30a); chain copies: 3; label: biotin; blunt
measurement-kind: binding result

Illustrative cases are given below, each with its answer.
binder	result
ZmPAH1-HSE1 (dsDNA) DNA 1: TCTTCGAATTGCATAGGAAACTTCGTTCGAACGCATTCTG DNA 2: CAGAATGCGTTCGAACGAAGTTTCCTATGCAATTCGAAGA	no binding
ZmPAH1-HSE2 (dsDNA) DNA 1: CAGCGTCACATGACGGGAATTTTCACGTCTTTTCAGCCCT DNA 2: AGGGCTGAAAAGACGTGAAAATTCCCGTCATGTGACGCTG	binds
ZmPAH1-HSE1-HSE2M2 (dsDNA) DNA 1: TCTTCGAATTGCATAGGAATTTTCGTTCGAACGCATTCTG DNA 2: CAGAATGCGTTCGAACGAAAATTCCTATGCAATTCGAAGA	no binding
ZmPAH1-HSE1-HSE2L16 (dsDNA) DNA 1: CAGCGTCACATGACGGGAATTTTCGTTCGAACGCATTCTG DNA 2: CAGAATGCGTTCGAACGAAAATTCCCGTCATGTGACGCTG	binds

Give binding result for ZmPAH1-HSE1-HSE2R16 (dsDNA) DNA 1: TCTTCGAATTGCATAGGAAACTTCACGTCTTTTCAGCCCT DNA 2: AGGGCTGAAAAGACGTGAAGTTTCCTATGCAATTCGAAGA binds
